assayedSystem: T1, human IL-17A (human, UniProt Q16552 24-155, biotinylated with Sulfo-NHS-LC-Biotin in the AlphaScreen assays only)
T1 construct: also called hIL-17A; recombinant human IL-17A
T1 sequence (Q16552 other isoform, or with tags, fused parts or gaps): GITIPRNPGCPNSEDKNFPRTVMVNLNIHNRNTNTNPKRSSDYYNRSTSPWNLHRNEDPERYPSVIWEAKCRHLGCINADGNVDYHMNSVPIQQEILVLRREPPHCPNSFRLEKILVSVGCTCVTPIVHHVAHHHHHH
method: AlphaScreen competition, hIL-17A - IL-17RA-Fc;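 further: receptor Fc-fusion plus Acceptor and streptavidin Donor beads incubated with the mixture for 1 h at room temperature before reading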
Assignment: determine reported pIC50 for the given binders.
Numbers only, as −log10 of the molar value.

- binder: "02A08 (VHH, Class 2 Nanobody (anti-IL-17A and IL-17A/F); not shown: c-myc, His6 tag) VHH: EVQLVESGGGVVQPGGSLRLSCADSERSFSFNAMGWFRQAPGKEREFVAAISATGDDTYYADSVKGRFAISRDTARNTVYLQMNSLKPEDTAVYYCGARVNFDGTVSYTNDYAYWGQGTQVTVSS"
  measurementType: "pIC50"
  assayValue: 9.90

Let's switch to this binder now.
Enquiry: Which pIC50 is listed for 13E05 (VHH, Class 4 Nanobody (cross-reactive: anti-IL-17A, IL-17F and IL-17A/F); not shown: c-myc, His6 tag) VHH: EVQLVESGGGKVQAGDSLTLSCVASGGTFSNYAAWFRQAPGKDRRELVVSIFRTGSITYTADSVKGRFTASRVNTKNTVYLQMNSLKPEDTAVYYCASAYNPGVGYDYWGQGTQVTVSS ?
Return: 9.80

Taken from patent US20210130452A1.
